molecular target: kappa-type opioid receptor isoform 1 (Xenopus tropicalis)
Sequence (F7A0F2 whole entry, canonical isoform): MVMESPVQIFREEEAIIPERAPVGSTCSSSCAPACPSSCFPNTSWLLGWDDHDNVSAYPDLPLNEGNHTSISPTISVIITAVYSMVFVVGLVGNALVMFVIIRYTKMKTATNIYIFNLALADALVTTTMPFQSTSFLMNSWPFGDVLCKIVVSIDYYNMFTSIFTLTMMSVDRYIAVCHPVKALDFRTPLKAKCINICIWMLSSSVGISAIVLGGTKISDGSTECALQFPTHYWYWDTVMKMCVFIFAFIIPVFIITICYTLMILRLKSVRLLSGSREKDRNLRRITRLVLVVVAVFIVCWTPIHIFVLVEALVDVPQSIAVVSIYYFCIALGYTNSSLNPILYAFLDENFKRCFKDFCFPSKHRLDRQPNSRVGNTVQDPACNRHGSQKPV
Exercise: for every item that follows, state its recorded Ki.
Give bare numbers, in nM.

INSERT INTO measurements (compound, target_of_assay, recorded_value) VALUES
  ('CC1[C@H]2Cc3ccc(O)cc3[C@]1(C)CCN2C[C@@H]1CCCO1 (stereo partly drawn)', 'kappa-type opioid receptor isoform 1 (Xenopus tropicalis)', 5400);

Provide Ki for all items below, preserving their order.
1. [N-]=[N+]=N[C@@H]1CC[C@H]2[C@H]3Cc4ccc(O)c5c4[C@@]2(CCN3CC2CC2)[C@@H]1O5
2. CC1[C@H]2Cc3ccc(O)cc3[C@]1(C)CCN2C[C@H]1CCCO1 (stereo partly drawn)

Result block:
0.1
4.8

----------
target: Kappa-type opioid receptor (Rattus norvegicus)
Sequence (P34975 whole entry): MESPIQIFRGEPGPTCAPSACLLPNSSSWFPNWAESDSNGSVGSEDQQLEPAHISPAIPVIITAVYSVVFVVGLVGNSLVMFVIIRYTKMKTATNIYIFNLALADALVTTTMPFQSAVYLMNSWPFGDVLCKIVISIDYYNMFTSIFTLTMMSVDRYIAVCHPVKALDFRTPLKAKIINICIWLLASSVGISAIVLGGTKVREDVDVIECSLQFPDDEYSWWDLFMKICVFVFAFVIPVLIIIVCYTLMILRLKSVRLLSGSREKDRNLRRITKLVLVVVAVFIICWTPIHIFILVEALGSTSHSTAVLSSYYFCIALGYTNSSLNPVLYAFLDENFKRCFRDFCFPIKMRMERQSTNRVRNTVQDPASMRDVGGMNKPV
Property: Ki (nM)
One number for each entry, in nM.

GET /value?item= H-YGGFMTSEKSQTPLVTLFKNAIVKNAHKKGQ-OH [Beta-Endorphin] &field=Ki returns 2.3
